Would you mind telling me the reported pEC50 of each entry?
- Experimental target: F508delCFTR (Homo sapiens, UniProt P13569, DEL508-508)
- Construct: expressed in transfected cells; host or cells: CFBE41o- human lung-derived epithelial cells (CFBE4lo-F508delCFTR-HRP), doxycycline-inducible
- Sequence (P13569 with tags, fused parts or gaps DEL508-508): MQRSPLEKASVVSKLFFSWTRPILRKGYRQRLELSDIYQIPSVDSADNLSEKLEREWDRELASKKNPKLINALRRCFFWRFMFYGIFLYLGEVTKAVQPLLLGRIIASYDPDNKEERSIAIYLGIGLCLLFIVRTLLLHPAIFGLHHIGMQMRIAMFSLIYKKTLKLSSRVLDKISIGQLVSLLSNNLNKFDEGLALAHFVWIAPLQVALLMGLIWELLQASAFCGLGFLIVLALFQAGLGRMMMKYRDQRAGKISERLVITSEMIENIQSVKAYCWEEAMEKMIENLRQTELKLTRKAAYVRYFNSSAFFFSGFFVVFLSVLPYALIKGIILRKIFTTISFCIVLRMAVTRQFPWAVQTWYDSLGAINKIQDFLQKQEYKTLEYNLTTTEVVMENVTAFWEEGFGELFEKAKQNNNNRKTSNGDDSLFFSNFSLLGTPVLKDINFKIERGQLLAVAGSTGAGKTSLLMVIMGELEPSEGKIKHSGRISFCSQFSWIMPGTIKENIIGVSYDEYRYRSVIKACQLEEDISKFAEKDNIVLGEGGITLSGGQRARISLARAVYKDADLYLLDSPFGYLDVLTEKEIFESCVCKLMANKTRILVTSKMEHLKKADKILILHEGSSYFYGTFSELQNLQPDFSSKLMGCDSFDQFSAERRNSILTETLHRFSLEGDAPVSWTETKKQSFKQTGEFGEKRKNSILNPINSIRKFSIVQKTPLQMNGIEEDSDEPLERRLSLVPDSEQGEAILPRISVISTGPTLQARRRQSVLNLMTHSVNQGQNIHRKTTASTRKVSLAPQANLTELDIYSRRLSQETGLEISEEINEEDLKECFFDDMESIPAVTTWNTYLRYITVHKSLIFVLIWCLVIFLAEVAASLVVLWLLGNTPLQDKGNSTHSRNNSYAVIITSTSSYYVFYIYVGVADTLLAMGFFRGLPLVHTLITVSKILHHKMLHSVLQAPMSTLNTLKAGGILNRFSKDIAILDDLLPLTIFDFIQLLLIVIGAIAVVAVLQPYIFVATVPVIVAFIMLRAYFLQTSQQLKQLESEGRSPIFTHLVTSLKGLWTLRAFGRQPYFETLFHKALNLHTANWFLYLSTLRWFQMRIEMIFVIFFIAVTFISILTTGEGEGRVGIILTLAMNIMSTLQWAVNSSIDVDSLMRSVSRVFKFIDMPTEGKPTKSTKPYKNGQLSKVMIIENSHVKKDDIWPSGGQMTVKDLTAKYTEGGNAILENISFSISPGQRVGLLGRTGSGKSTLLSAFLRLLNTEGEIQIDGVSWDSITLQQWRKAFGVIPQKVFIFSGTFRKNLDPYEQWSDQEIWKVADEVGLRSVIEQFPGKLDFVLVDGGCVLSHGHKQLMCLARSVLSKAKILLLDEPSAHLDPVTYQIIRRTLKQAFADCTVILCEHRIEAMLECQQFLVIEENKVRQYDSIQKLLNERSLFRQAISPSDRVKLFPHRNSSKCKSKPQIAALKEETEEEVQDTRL
- Assay notes: Cell Surface Expression-Horse Radish Peroxidase (CSE-HRP) Assay
- Format: cell-based
- Applied conditions: test compound without co-corrector; read-out: EC50 (without co-corrector)
pEC50: −log10 of the molar value.

Q) Please report pEC50 for the following molecule: COc1ccc(C(C)(C)C)cc1CN[C@H]1[C@H](C(C)(C)C)[C@@H](C(=O)O)N(C(=O)c2ccc(Oc3ccccc3)cc2)[C@H]1c1cccnc1N(C)C [II-464]
A) > 6.00

Q) Please report pEC50 for the following molecule: COc1ccc(C(F)(F)F)cc1CN[C@H]1[C@H](C(C)(C)C)[C@@H](C(=O)O)N(C(=O)OC(C)C)[C@H]1c1ccccc1C [II-581]
A) 5.00 to 6.00

Q) Please report pEC50 for the following molecule: COc1ccc(C(C)(C)C)cc1CN[C@H]1[C@H](C(C)(C)C)[C@@H](C(=O)O)N(C(=O)OCC(C)(C)C)[C@H]1c1ccccc1 [II-392]
A) > 6.00

Q) Please report pEC50 for the following molecule: COc1ccc(C(C)(C)C)cc1CN[C@H]1[C@H](C(C)(C)C)[C@@H](C(=O)O)N(C(=O)C2CCCS(=O)(=O)C2)[C@H]1c1ccccc1 (some centres unmarked) [Example I-66]
A) 5.00 to 6.00

Q) Please report pEC50 for the following molecule: COc1ccc(C(C)(C)C)cc1CN[C@H]1[C@H](C(C)(C)C)[C@@H](C(=O)O)N(C(=O)c2ccc(OC(F)(F)F)cc2)[C@H]1c1cccnc1N(C)C [II-467]
A) > 6.00

Q) Please report pEC50 for the following molecule: COc1ccc(C(C)(C)C)cc1CN[C@H]1[C@H](C(C)(C)C)[C@@H](C(=O)O)N(C(=O)C2COc3ccccc3O2)[C@H]1c1cccnc1N(C)C (single isomer, unassigned) [II-471]
A) < 5.00

Q) Please report pEC50 for the following molecule: COc1ccc(C(F)(F)F)cc1CN[C@@H]1[C@@H](C(C)(C)C)[C@H](C(=O)O)N(C(=O)C(C)(C)OC)[C@@H]1c1ccccc1 (racemic) [Example I-41]
A) < 5.00

Q) Please report pEC50 for the following molecule: COc1ccc(C(C)(C)C)cc1CN[C@H]1[C@H](C(C)(C)C)[C@@H](C(=O)O)N(C(=O)Cc2ccc(Cl)cc2)[C@H]1c1ccccc1 [III-166]
A) 5.00 to 6.00

Q) Please report pEC50 for the following molecule: COc1ncc(C2=CCOC2)cc1CN[C@H]1[C@H](C(C)(C)C)[C@@H](C(=O)O)N(C(=O)C2CCCCC2)[C@H]1c1ccccc1 [II-350]
A) 5.00 to 6.00

Q) Please report pEC50 for the following molecule: COc1ncc(C(F)(F)F)cc1CN[C@H]1[C@H](C(C)(C)C)[C@@H](C(=O)O)N(C(=O)[C@@H]2CCC[C@@H](OC)C2)[C@H]1c1ccccc1 [Example I-79]
A) 5.00 to 6.00

Q) Please report pEC50 for the following molecule: COc1ncc(C2CCCC2)cc1CN[C@H]1[C@H](C(C)(C)OC)[C@@H](C(=O)O)N(C(=O)C2CCCCC2)[C@H]1c1ccccc1 [Example I-116]
A) > 6.00

Q) Please report pEC50 for the following molecule: COc1ccc(C(C)(C)C)cc1CN[C@H]1[C@H](C(C)(C)C)[C@@H](C(=O)O)N(C(=O)OC(C)C)[C@H]1c1cccnc1OC [II-511]
A) 5.00 to 6.00

Q) Please report pEC50 for the following molecule: COc1ccc(C(C)(C)C)cc1CN[C@H]1[C@H](C(C)(C)C)[C@@H](C(=O)O)N(C(=O)C2CCCC(F)(F)C2)[C@H]1c1cccnc1N(C)C (single isomer, unassigned) [Example 44]
A) 5.00 to 6.00

Q) Please report pEC50 for the following molecule: CO[C@H](C(=O)N1[C@H](C(=O)O)[C@@H](C(C)(C)C)[C@H](Nc2cc(C(F)(F)F)cc(C)n2)[C@@H]1c1ccccc1)c1ccccc1 [III-103]
A) < 5.00

Q) Please report pEC50 for the following molecule: COc1ccc(C(C)(C)C)cc1CN[C@H]1[C@H](C(C)(C)C)[C@@H](C(=O)O)N(C(=O)C2CCCN(C)C2=O)[C@H]1c1ccccc1 (single isomer, unassigned) [II-444]
A) 5.00 to 6.00

Q) Please report pEC50 for the following molecule: COc1ncc(-c2cccnc2C)cc1CN[C@H]1[C@H](C(C)(C)C)[C@@H](C(=O)O)N(C(=O)C2CCCCC2)[C@H]1c1ccccc1 [II-348]
A) 5.00 to 6.00

Q) Please report pEC50 for the following molecule: COc1ccc(C(F)(F)F)cc1CN[C@H]1[C@H](C(C)(C)C)[C@@H](C(=O)O)N(C(=O)OC(C)C)[C@H]1c1cccnc1N(C)C [II-551]
A) 5.00 to 6.00

Q) Please report pEC50 for the following molecule: COc1ccc(C(C)(C)C)cc1CN[C@H]1[C@H](C(C)(C)C)[C@@H](C(=O)O)N(C(=O)C2CCCCC2)[C@H]1c1ccccc1C [II-576]
A) > 6.00

Q) Please report pEC50 for the following molecule: COc1ccc(C(C)(C)C)cc1CN[C@H]1[C@H](C(C)(C)C)[C@@H](C(=O)O)N(C(=O)[C@@H](C)c2ccccc2)[C@H]1c1cccnc1OC [II-539]
A) 5.00 to 6.00

Q) Please report pEC50 for the following molecule: COc1ncc(C2CCC2)cc1CN[C@H]1[C@H](C(C)(C)C)[C@@H](C(=O)O)N(C(=O)OC(C)C)[C@H]1c1ccccc1 [Example I-214]
A) 5.00 to 6.00

Q) Please report pEC50 for the following molecule: COc1ncc(C2CCC2)cc1CN[C@H]1[C@H](C(C)(C)C)[C@@H](C(=O)O)N(C(=O)C2CC(C)CC(C)C2)[C@H]1c1ccccc1 (some centres unmarked) [III-207]
A) 5.00 to 6.00

Q) Please report pEC50 for the following molecule: COc1cc(C(F)(F)F)ccc1CN[C@H]1[C@H](C23CC(C2)C3)[C@@H](C(=O)O)N(C(=O)C2CCCCC2)[C@H]1c1ccccc1 [II-470]
A) 5.00 to 6.00

Q) Please report pEC50 for the following molecule: COc1cc(C(F)(F)F)ccc1CN[C@H]1[C@H](C(C)(C)C)[C@@H](C(=O)O)N(C(=O)[C@@H]2CCCCO2)[C@H]1c1ccccc1 [Example 10]
A) 5.00 to 6.00
